tested on: SK-MEL-5; assay: NCI tumour cell line growth inhibition, 48 h
Activity calls are given as the source filed them. Rule as the data show it: active = GI50 up to about 1.1 µM and inactive = higher.
REPORTED PROPERTY: GI50

COC(=O)/C(=C/c1ccc(OC)cc1)c1cc(OC)c(OC)c(OC)c1
0.569 µM (active)

Query (compound): CCOC(=O)c1c[nH]c2cc3c(cc2c1=O)CCS3(=O)=O.CCOC(=O)c1c[nH]c2ccc3c(c2c1=O)S(=O)(=O)CC3 ; field requested: GI50 > 100 µM (inactive)

Would you kindly repeat that for Cc1c(Cl)c(=O)oc2cc(OCC(=O)c3ccccc3)ccc12 ? > 100 µM (inactive)

Would you kindly repeat that for CN(C)c1ccc(/C=C(\NC(=O)c2ccccc2)C(=O)Nc2cccc(C(=O)NCCCO)c2)cc1 ? > 100 µM (inactive)

Would you kindly repeat that for OC1C2CCC1C1C3C=CC(C3)C21 (configuration not stated) ? 87.3 µM (inactive)

Would you kindly repeat that for Cc1nn(C)c2c1C(=O)N(C)CC(=O)N2C ? > 100 µM (inactive)

Would you kindly repeat that for Cc1cccc2nc3cc(O)cc(O)c3c(O)c12 ? > 10 µM (inactive)

Would you kindly repeat that for Cc1cc2oc(=O)c(Cl)c(Cl)c2c(C)c1Cl ? 6.93 µM (inactive)

Would you kindly repeat that for Cc1c(C(=O)OCc2ccccc2)[n+]([O-])c2cc(Cl)c(Cl)cc2[n+]1[O-] ? 15 µM (inactive)
